Reference source: paper PMC3804602

Quick reference for koff among some binders
target-or-test-system: T1, T2 mechanosensitive channel from Thermoplasma volcanium, tag free (Thermoplasma volcanium)
T1 construct: TVN0821, gene amplified from genomic DNA (DSM 4299 [GSS1*]); 297 amino acids per monomer; Cloned into pNIC28-Bsa4 (TEV site) and pET46 (Enterokinase site); In detergent (0.03 % DDM); also called T2 channel; tag free T2-channel; source: E. coli C43(DE3), purified (DDM solubilised, IMAC, tag cleavage, second IMAC, gel filtration); not shown: His-tag, N-terminal, cleaved
T1 chain: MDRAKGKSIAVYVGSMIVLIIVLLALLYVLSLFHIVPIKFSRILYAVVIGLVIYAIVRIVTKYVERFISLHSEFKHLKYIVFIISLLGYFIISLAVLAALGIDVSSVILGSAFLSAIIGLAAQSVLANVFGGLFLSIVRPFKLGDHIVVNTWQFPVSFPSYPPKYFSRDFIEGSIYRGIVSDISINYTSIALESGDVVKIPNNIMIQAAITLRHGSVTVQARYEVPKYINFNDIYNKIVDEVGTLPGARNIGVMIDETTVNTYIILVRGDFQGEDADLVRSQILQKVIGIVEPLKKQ
measurement-protocol: SPR; BIAcore 3000, 25 °C, 20 mM sodium phosphate pH 7.4, 150 mM NaCl, 0.03 % DDM; T2 channel amine-coupled on CM5 (1500 - 2000 RU); nanobodies 0.35 - 86.1 nM injected in triplicates; global fit to a simple bimolecular model, KD = kd/ka
condition-label: both partners purified
Quick note: give the figure in s⁻¹, leave out the unit.

binder: nanobody 14 (VHH, pHEN6 vector; also called Nb 14; CA-number 3396; source: E. coli WK6 periplasm, purified (IMAC, gel filtration); not shown: His-tag, C-terminal, kept) VHH: QVQLQESGGGLVQPGGSLRLSCAASGSIFSINSMDWYRQAPGKQRELVATITSGGSTNYADSVKGRFTISRDNAKNTVYLQMNSLKPEDTAVYLCHAVVATRGGYWGQGTQVTVSS
measurement-label: koff
measurement-units: s⁻¹
reported-measurement: 0.0023
--
binder: nanobody 4 (VHH, pHEN6 vector; also called Nb 4; CA-number 3383; source: E. coli WK6 periplasm, purified (IMAC, gel filtration); not shown: His-tag, C-terminal, kept) VHH: QVQLQESGGGLVQPGGSLRLSCAASGSIFSMNSMDWYRQAPGKQRELVATITSGGSTNYADSVKGRFTISRDNAWNTVTLQMNSLKPEDTAVYYCHAVLSTRGGYWGQGTQVTVSS
measurement-label: koff
measurement-units: s⁻¹
reported-measurement: 0.0021

As a next step, examine the binder that follows.
Tell me measured koff for nanobody 11 (VHH, pHEN6 vector; also called Nb 11; CA-number 3393; source: E. coli WK6 periplasm, purified (IMAC, gel filtration); not shown: His-tag, C-terminal, kept) VHH: QVQLQESGGGLVQAGGSLRLSCAASGGPFTFGAMGWYRQAPGKQRELVAIITKKGSTNYADSVKGRFTVSRDNAKNTVYLQMNSLKPEDTAVYYCYHQTAPVADVTWGQGTQVTVSS please.
0.0016
